- Target under test: T1, PUF4 RNA-binding domain (Saccharomyces cerevisiae, UniProt P25339 537-888)
- T1 sequence: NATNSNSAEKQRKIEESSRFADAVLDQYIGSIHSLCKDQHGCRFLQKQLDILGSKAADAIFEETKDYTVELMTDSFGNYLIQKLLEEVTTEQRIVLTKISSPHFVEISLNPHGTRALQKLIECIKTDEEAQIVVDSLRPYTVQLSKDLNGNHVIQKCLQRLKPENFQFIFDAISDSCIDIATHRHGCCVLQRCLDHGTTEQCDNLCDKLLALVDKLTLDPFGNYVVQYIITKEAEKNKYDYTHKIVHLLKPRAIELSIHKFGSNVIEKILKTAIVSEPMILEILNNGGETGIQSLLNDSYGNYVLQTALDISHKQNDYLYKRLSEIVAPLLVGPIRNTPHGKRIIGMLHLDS
- Assay explanation: Mg; RNA-MaP; 20 mM Na-HEPES pH 7.4, 30 mM KOAc, 0.75 mM MgCl2, 0.1% Tween-20, 5% glycerol, 0.1 mg/mL BSA, 2 mM DTT; 25 C; 0.0125-409.6 nM protein
- Study conditions: tags: N-His6-TEV cleaved; C-SNAP kept, Cy3B-labelled; label: tethered on chip by stalled RNA polymerase
pKd: −log10 of the molar value.
Where pKd equals or exceeds 8, the correct label is 1.0; where it does not, the label is 0.0.

Binder	Assigned class
UCUCUUUGUAAAAACUCUCUU (ssRNA) [Ic_S1_P4E.1_K4.1_C4.1_H4.1_A4.1_[T5A]_[T7A]_F4.1_[T8A]_[A9C]_T4.1]	0.0
Ic_S2_P5E.1_K5.1_C5.1_H5.1_A5.1_[A7C]_F5.1_[T8G]_[A10T]_T5.1 (ssRNA) RNA: UUUGAUUAAUAUGAUAUCGUUCUUUCUUGUAUUCGUUUUCUUUCUCGAUAUCAUAUUAAUCUUU	0.0
UCUCUUUGUGUAUUAUUAUUUCUCUU (ssRNA) [Id_ii_S1_P5E.2_K5.1_C5.2_[C-2T]_[T-1G]_H5.1_A5.1_F5.1_T5.2_[A12T]]	1.0
Ie_S2_P3E.2_K3.1_C3.2_H3.1_A3.1_F3.1_[+7C]_T3.2 (ssRNA) RNA: UUUGAUUAAUAUGAUAUCGUUCUUUCUCUUGUAUAUCAUAUUCUUUCUCGAUAUCAUAUUAAUCUUU	1.0
Ie_S2_P3E.2_K3.1_C3.2_H3.1_[+3CCCTT]_A3.1_F3.1_T3.2 (ssRNA) RNA: UUUGAUUAAUAUGAUAUCGUUCUUUCUCUUGUCCCUUAUAUAUAUUCUUUCUCGAUAUCAUAUUAAUCUUU	0.0
Ib_S2_P3E.1_K3.1_C3.1_H3.1_[T1A]_A3.1_F3.1_[A8G]_T3.1 (ssRNA) RNA: UUUGAUUAAUAUGAUAUCGUUCUUUCUAGUAUAUGUUCUUUCUCGAUAUCAUAUUAAUCUUU	0.0
Ib_S2_P3E.1_K3.1_C3.1_H3.1_[T1C]_A3.1_[T5A]_F3.1_T3.1 (ssRNA) RNA: UUUGAUUAAUAUGAUAUCGUUCUUUCUCGUAAAUAUUCUUUCUCGAUAUCAUAUUAAUCUUU	0.0
Ie_S2_P3E.2_K3.1_C3.2_H3.1_A3.1_F3.1_[+8TCTC]_T3.2 (ssRNA) RNA: UUUGAUUAAUAUGAUAUCGUUCUUUCUCUUGUAUAUAUCUCUAUUCUUUCUCGAUAUCAUAUUAAUCUUU	1.0
Ie_S2_P4E.1_K4.1_C4.1_H4.1_[+1CCT]_A4.1_F4.1_T4.1 (ssRNA) RNA: UUUGAUUAAUAUGAUAUCGUUCUUUCUUCCUGUAUAUUAUUCUUUCUCGAUAUCAUAUUAAUCUUU	1.0
ACAAACGCACACUAUAUAACAAAC (ssRNA) [Id_ii_S3_P3E.4_K3.3_C3.2_[C-2G]_[T-1C]_H3.3_A3.1_F3.1_T3.2]	0.0
Ie_S4_P5E.1_K5.1_C5.1_H5.1_A5.1_F5.1_[+8TCTC]_T5.1 (ssRNA) RNA: UUUGACAACUGAUCGUUCUUUCUUGUAUUAUUCUCUAUUCUUUCUCGAUCAGUUGUCUUU	0.0
UCUCUUUGUACAAAAUUCUCUU (ssRNA) [Ic_S1_P5E.1_K5.1_C5.1_H5.1_A5.1_[T5C]_[T6A]_F5.1_[T8A]_[T9A]_[A10T]_T5.1]	0.0
Ie_S2_P5E.1_K5.1_C5.1_H5.1_[+2CTT]_A5.1_F5.1_T5.1 (ssRNA) RNA: UUUGAUUAAUAUGAUAUCGUUCUUUCUUGCUUUAUUAUUAUUCUUUCUCGAUAUCAUAUUAAUCUUU	0.0
Ic_S2_P4E.1_K4.1_C4.1_H4.1_A4.1_[T5G]_[A6C]_F4.1_[A9C]_T4.1 (ssRNA) RNA: UUUGAUUAAUAUGAUAUCGUUCUUUCUUGUAGCUUCUUCUUUCUCGAUAUCAUAUUAAUCUUU	0.0
Ib_S4_P3E.1_K3.1_C3.1_H3.1_[T3C]_[A4T]_A3.1_F3.1_T3.1 (ssRNA) RNA: UUUGACAACUGAUCGUUCUUUCUUGCUUAUAUUCUUUCUCGAUCAGUUGUCUUU	0.0
Ic_S4_P3E.1_K3.1_C3.1_H3.1_A3.1_[A6C]_F3.1_[T7C]_[A8G]_T3.1 (ssRNA) RNA: UUUGACAACUGAUCGUUCUUUCUUGUAUCCGUUCUUUCUCGAUCAGUUGUCUUU	0.0
UCUCUUUAUCUUAUUAUCUCUU (ssRNA) [Ib_S1_P5E.1_K5.1_C5.1_H5.1_[G2A]_[A4C]_A5.1_F5.1_T5.1]	0.0
